# measurement.notes: Phase 2 metabolic stability in monkey liver microsomes assessed as compound remaining at 10 uM measured for 1 hr by LC-MS/MS analysis in absence of cofactors
# Assay type: ADME, Macaca mulatta
# study.conditions: rhesus monkey, read-out: Stability

{"smiles.representation": "O=C(O)c1cccc(-c2cccc(CCS)c2C(=O)O)c1", "remaining at 1 h, 10 µM": "> 90%"}

---

# measurement.notes: Cmax in Sprague-Dawley rat kidney at 10 mg/kg, po administered as single dose measured per gm of tissue by LC-MS/MS analysis
# Format: ADME, organism-based
# Design: dose 10 mg/kg, route oral
recorded.endpoint: Cmax (ng/g)

{"smiles.representation": "O=C(O)c1cccc(-c2cccc(CCS)c2C(=O)O)c1", "unit.string": "ng/g", "assay.value": 405}
